# measurement-parameters: Crystal; visual observation
Note to self: values exactly at -90 °C are TRUE. So Normal melting temperature at or above -90 °C is TRUE, below is FALSE.

line-notation: CCCCCCCCCCCCCCCC
class: TRUE

line-notation: CCCO
class: FALSE

line-notation: CCCc1ccccc1
class: FALSE

line-notation: Cc1ccccc1
class: FALSE

line-notation: CCCCCC
class: FALSE

line-notation: CCCCCCCCCCO
class: TRUE

line-notation: CCCCCCCCO
class: TRUE
